I'd appreciate it if you could supply Toxicity Assay Z-score values for the items below.
// keep it numeric: no unit symbol after the value

Reported Toxicity Assay Z-score for Clone V cells, given O=C(O)C(=O)O.[NH-][C@@H]1CCCC[C@H]1[NH-].[Pt+2] ?
-1.32

Provide the documented Toxicity Assay Z-score with Clone V cells as the system for COc1cc(Nc2c(C#N)cnc3cc(OCCCN4CCN(C)CC4)c(OC)cc23)c(Cl)cc1Cl
-3.45

For the record N#C/C(=C/c1ccc(O)c(O)c1)C(=O)NCc1ccccc1 , what value of Toxicity Assay Z-score is listed for Clone V cells?
-1.48

# get_value(readout= Toxicity Assay Z-score, system= Clone V cells) for O=S(=O)(NCCNC/C=C/c1ccc(Br)cc1)c1cccc2cnccc12 [H-89, reference compound]
-1.15

---

Test system: Clone V cells
Details: human
*1 amine or outer side, *2 acyl side, *3 side chain or, on linkers, in order; H or OH if unused. Where a SMILES comes first, the peptide text is derived from it. Bridges are numbered along the chain shown (N, C = ends). Roman numbers before positions name the chains, in order. [ ]: non-standard residue; d: D form. Actinocin(9to1) = Cc1c2oc3c(C)ccc(C(=O)[*:1])c3nc-2c(C(=O)[*:2])c(N)c1=O; NMeV = CN[C@H](C(=O)O)C(C)C; Sar = CNCC(=O)O
Hi there, I'd appreciate the recorded Toxicity Assay Z-score for every entry that follows.
I only need the number, thanks.

// query Toxicity Assay Z-score value for entry Cc1c2oc3c(C)ccc(C(=O)N[C@@H]4C(=O)N[C@H](C(C)C)C(=O)N5CCC[C@H]5C(=O)N(C)CC(=O)N(C)[C@@H](C(C)C)C(=O)O[C@@H]4C)c3nc-2c(C(=O)N[C@@H]2C(=O)N[C@H](C(C)C)C(=O)N3CCC[C@H]3C(=O)N(C)CC(=O)N(C)[C@@H](C(C)C)C(=O)O[C@@H]2C)c(N)c1=O [Dactinomycin] (I: T[dV]P[Sar][NMeV] / II: T[dV]P[Sar][NMeV]; ester I:1-I:C, II:1-II:C; linker I:N-II:N via Actinocin(9to1))
-0.94

Any idea what its Toxicity Assay Z-score is? The compound is O=P1(N(CCCl)CCCl)NCCCO1 (stereo not shown) [Cyclophosphamide]
-0.16

Any idea what its Toxicity Assay Z-score is? The compound is COc1cc2c(cc1OC)[C@@H]1C(=O)c3ccc4c(c3O[C@@H]1CO2)C=CC(C)(C)O4
0.08

# get_value(readout='Toxicity Assay Z-score', item= Cc1ccc(C(=O)Nc2ccc(CN3CCN(C)CC3)c(C(F)(F)F)c2)cc1C#Cc1cnc2cccnn12 )
-2.66

---

I'd appreciate it if you could supply Split Luciferase Assay Z-score Set 1 values for the items below.
Molecular target: FGF14:Nav1.6 C-tail complex (Homo sapiens, UniProt Q92915+Q9UQD0)
Construct: polymerase chain reaction (PCR) amplification of the FGF14 open reading frame (nt 1–855); C-terminal fragment of Nav1.6 (amino acids 1763–1976) fused with CD4ΔC-tail (amino acids 1–395); expressed in transfected cells
Sequence (Q92915 1-252 isoform Q92915-2): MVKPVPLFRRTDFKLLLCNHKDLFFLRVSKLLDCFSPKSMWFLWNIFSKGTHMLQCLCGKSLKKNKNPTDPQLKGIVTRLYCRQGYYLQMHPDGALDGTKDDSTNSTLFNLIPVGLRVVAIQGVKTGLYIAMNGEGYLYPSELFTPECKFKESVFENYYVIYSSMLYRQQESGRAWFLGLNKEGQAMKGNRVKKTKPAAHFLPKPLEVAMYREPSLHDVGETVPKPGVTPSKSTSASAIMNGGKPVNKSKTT
Sequence (Q9UQD0 1763-1976 limits assumed): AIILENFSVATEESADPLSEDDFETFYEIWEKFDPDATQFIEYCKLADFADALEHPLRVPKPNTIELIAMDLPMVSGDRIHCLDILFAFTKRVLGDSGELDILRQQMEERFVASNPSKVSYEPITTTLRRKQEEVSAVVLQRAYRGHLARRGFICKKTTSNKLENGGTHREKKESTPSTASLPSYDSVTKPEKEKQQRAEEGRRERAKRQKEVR
Test: Split-luciferase complementation assay (LCA) in Clone V double stable HEK293 cells
Type: cell-based
Conditions: CC_NCI screening; LCA, biological replicate Set 1; normalized to on-plate 0.3% DMSO controls
Counter-ions that a name gives are not always drawn.
The response must contain the number and no unit.

Give its Split Luciferase Assay Z-score Set 1 value. Item: N.N.[Cl][Pt][Cl] [Cisplatin]
-0.85

Name the recorded Split Luciferase Assay Z-score Set 1 for Cc1ccc(Nc2nccc(N(C)c3ccc4c(C)n(C)nc4c3)n2)cc1S(N)(=O)=O.Cl [Pazopanib hydrochloride] .
-7.00

Using the record for Nc1nc2nc[nH]c2c(=S)[nH]1 , report its Split Luciferase Assay Z-score Set 1.
-0.50

Need Split Luciferase Assay Z-score Set 1, item C=CCNC1=C2C[C@@H](C)C[C@H](OC)[C@H](O)[C@@H](C)/C=C(\C)[C@H](OC(N)=O)[C@@H](OC)/C=C\C=C(/C)C(=O)NC(=CC1=O)C2=O
-4.37

Dear colleague, I am looking for the recorded Split Luciferase Assay Z-score Set 1 of the following molecule: Cc1cn(-c2cc(NC(=O)c3ccc(C)c(Nc4nccc(-c5cccnc5)n4)c3)cc(C(F)(F)F)c2)cn1 [NILOTINIB]
0.73

// Split Luciferase Assay Z-score Set 1 lookup, key: COc1cc2c(Oc3ccc4[nH]c(C)cc4c3F)ncnc2cc1OCCCN1CCCC1
-2.43

Would you kindly share the measured Split Luciferase Assay Z-score Set 1 for CN1CCN(CCOc2cc(OC3CCOCC3)c3c(Nc4c(Cl)ccc5c4OCO5)ncnc3c2)CC1 [SARACATINIB] ?
-1.20

Request the reported Split Luciferase Assay Z-score Set 1 associated with Cc1ccc(NC(=O)c2ccc(CN3CCN(C)CC3)cc2)cc1Nc1nc(-c2cccnc2)cs1
-7.62

Would you mind telling me what Split Luciferase Assay Z-score Set 1 value was observed for Cc1nc(Nc2ncc(C(=O)Nc3c(C)cccc3Cl)s2)cc(N2CCN(CCO)CC2)n1 [Dasatinib] ?
-0.59

Recorded Split Luciferase Assay Z-score Set 1 for COc1cc(Nc2c(C#N)cnc3cc(OCCCN4CCN(C)CC4)c(OC)cc23)c(Cl)cc1Cl [BOSUTINIB] , please?
0.73

State the recorded Split Luciferase Assay Z-score Set 1 for this entry: O=S(=O)(NCCNC/C=C/c1ccc(Br)cc1)c1cccc2cnccc12 [H-89, reference compound]
-6.91

For the molecule shown here, CNC(=O)c1ccccc1Sc1ccc2c(/C=C/c3ccccn3)n[nH]c2c1 [Axitinib] , give the reported Split Luciferase Assay Z-score Set 1.
-5.42

Any idea what its Split Luciferase Assay Z-score Set 1 is? The molecule is Cc1cccc(Nc2nc(-c3ccncc3)cs2)c1
-6.21

GET /values?readout=Split Luciferase Assay Z-score Set 1&item= CN(N=O)C(=O)N[C@@H](C=O)[C@@H](O)[C@H](O)[C@H](O)CO
2.49

Name the reported Split Luciferase Assay Z-score Set 1 value associated with the molecule Nc1nc(F)nc2c1ncn2[C@@H]1O[C@H](COP(=O)(O)O)[C@@H](O)[C@@H]1O [Fludarabine phosphate]
0.99

# input molecule: CC[C@@]1(O)C(=O)OCc2c1cc1n(c2=O)Cc2cc3c(CN(C)C)c(O)ccc3nc2-1 [Topotecan hydrochloride] ; wanted: its Split Luciferase Assay Z-score Set 1
-3.40

Query: Split Luciferase Assay Z-score Set 1; subject: CNCc1ccc(-c2[nH]c3cc(F)cc4c3c2CCNC4=O)cc1
-2.78

Look up Split Luciferase Assay Z-score Set 1 for this molecule: Cc1c(NC(=O)OC[C@@H]2COCCN2)cn2ncnc(Nc3ccc4c(cnn4Cc4cccc(F)c4)c3)c12
-4.98

GET /values?readout=Split Luciferase Assay Z-score Set 1&item= CO[C@H]1/C=C\C=C(/C)C(=O)NC2=CC(=O)C(NCCN(C)C)=C(C[C@@H](C)C[C@H](OC)[C@H](O)[C@@H](C)/C=C(\C)[C@@H]1OC(N)=O)C2=O
-4.80

So what's the measured Split Luciferase Assay Z-score Set 1 for this one? CCCS(=O)(=O)Nc1ccc(F)c(C(=O)c2c[nH]c3ncc(-c4ccc(Cl)cc4)cc23)c1F [Vemurafenib]
0.38

What value of Split Luciferase Assay Z-score Set 1 has been recorded for this entry: CN(C)C/C=C/C(=O)Nc1cc2c(Nc3ccc(F)c(Cl)c3)ncnc2cc1O[C@H]1CCOC1 [Afatinib]
-2.26

Please give the measured Split Luciferase Assay Z-score Set 1 for this molecule: C[C@]12CC[C@@H]3c4ccc(O)cc4C[C@@H](CCCCCCCCC[S+]([O-])CCCC(F)(F)C(F)(F)F)[C@H]3[C@@H]1CC[C@@H]2O (stereo partly drawn)
-0.41

Find the recorded Split Luciferase Assay Z-score Set 1 belonging to CN1CCN(CCOc2cc(OC3CCOCC3)c3c(Nc4c(Cl)ccc5c4OCO5)ncnc3c2)CC1 [AZD 0530] and report it.
-5.16

State the recorded Split Luciferase Assay Z-score Set 1 for this entry: Cc1[nH]c(/C=C2\C(=O)Nc3ccc(S(=O)(=O)N(C)c4cccc(Cl)c4)cc32)c(C)c1C(=O)N1CCN(C)CC1
-1.47

Any idea what Split Luciferase Assay Z-score Set 1 was measured for Cn1cc(C2=C(c3cn(C4CCN(Cc5ccccn5)CC4)c4ccccc34)C(=O)NC2=O)c2ccccc21 ?
-1.29

Quick one: Split Luciferase Assay Z-score Set 1 of COc1cccc2c1C(=O)c1c(O)c3c(c(O)c1C2=O)C[C@@](O)(C(=O)CO)C[C@@H]3O[C@H]1C[C@H](N)[C@H](O)[C@H](C)O1 [Doxorubicin hydrochloride] ?
-4.10

Which Split Luciferase Assay Z-score Set 1 value belongs to O=C(c1cc(Cc2n[nH]c(=O)c3ccccc23)ccc1F)N1CCN(C(=O)C2CC2)CC1 ?
1.43

Sample Cc1ccc(C(=O)Nc2ccc(CN3CCN(C)CC3)c(C(F)(F)F)c2)cc1C#Cc1cnc2cccnn12 — what was its Split Luciferase Assay Z-score Set 1?
-3.75

Query (molecule): C#CCC(Cc1cnc2nc(N)nc(N)c2n1)c1ccc(C(=O)N[C@@H](CCC(=O)O)C(=O)O)cc1 (stereo partly drawn) [Pralatrexate] ; field requested: Split Luciferase Assay Z-score Set 1
1.43

Using the record for O=C(O)C(=O)O.[NH-][C@@H]1CCCC[C@H]1[NH-].[Pt+2] , report its Split Luciferase Assay Z-score Set 1.
1.26
